Tested on: Enterococcus faecium
assay.overview: Antibacterial activity against Enterococcus faecium isolate 5749
Format: functional
readout.kind: MIC (µg/mL)
Answers are plain numbers, in µg/mL.

These recorded examples may help you get a feel for the data.
CC1(C)S[C@@H]2[C@H](NC(=O)Cc3ccccc3)C(=O)N2[C@H]1C(=O)O ... 128
CN(C)c1ccc(O)c2c1C[C@H]1C[C@H]3[C@H](N(C)C)C(O)=C(C(N)=O)C(=O)[C@@]3(O)C(O)=C1C2=O ... 16
C[C@H]1c2cccc(O)c2C(=O)C2=C(O)[C@]3(O)C(=O)C(C(N)=O)=C(O)[C@@H](N(C)C)[C@@H]3[C@@H](O)[C@@H]21.O ... 8

Attention now turns to another entry.
Data point: `O=C(N[C@H](CO)[C@H](O)c1ccc([N+](=O)[O-])cc1)C(Cl)Cl` ; MIC = 4

====

Test system: Enterococcus faecium
assay.overview: Antibacterial activity against Enterococcus faecium isolate 2547
Type: functional
readout.kind: MIC (mg/L)
One number for each entry, in mg/L.

O=C(N[C@H](CO)[C@H](O)c1ccc([N+](=O)[O-])cc1)C(Cl)Cl ... 8

Attention now turns to another entry.
Data point: `C[C@H]1c2cccc(O)c2C(=O)C2=C(O)[C@]3(O)C(=O)C(C(N)=O)=C(O)[C@@H](N(C)C)[C@@H]3[C@@H](O)[C@@H]21.O` ; MIC = 16

====

System: Staphylococcus aureus
assay.overview: Antibacterial activity against methicillin-resistant Staphylococcus aureus isolate 5736
Format: functional
readout.kind: MIC (µg/mL)
Give bare numbers, in µg/mL.

Data point: C[C@H]1COc2c(N3CCN(C)CC3)c(F)cc3c(=O)c(C(=O)O)cn1c23.C[C@H]1COc2c(N3CCN(C)CC3)c(F)cc3c(=O)c(C(=O)O)cn1c23.O [LEVOFLOXACIN] ; MIC = 16

====

Tested on: Staphylococcus aureus
assay.overview: Antibacterial activity against methicillin-resistant Staphylococcus aureus isolate 5733
Format: functional
readout.kind: MIC (µg/mL)
Give bare numbers, in µg/mL.

These recorded examples may help you get a feel for the data.
C[C@H]1c2cccc(O)c2C(=O)C2=C(O)[C@]3(O)C(=O)C(C(N)=O)=C(O)[C@@H](N(C)C)[C@@H]3[C@@H](O)[C@@H]21.O [DOXYCYCLINE] ... 4
CN(C)[C@@H]1C(O)=C(C(N)=O)C(=O)[C@@]2(O)C(O)=C3C(=O)c4c(O)cccc4[C@@](C)(O)[C@H]3C[C@@H]12 [TETRACYCLINE] ... 8

Attention now turns to another entry.
MIC value, target or system Staphylococcus aureus, for C[C@H]1COc2c(N3CCN(C)CC3)c(F)cc3c(=O)c(C(=O)O)cn1c23.C[C@H]1COc2c(N3CCN(C)CC3)c(F)cc3c(=O)c(C(=O)O)cn1c23.O [LEVOFLOXACIN] : 16

====

Hi there, I'd appreciate the recorded MIC for every entry that follows.
System: Enterococcus faecalis
assay.overview: Antibacterial activity against Enterococcus faecalis isolate 5744
Type: functional
One number for each entry, in µg/mL.

These recorded examples may help you get a feel for the data.
C[C@H]1c2cccc(O)c2C(=O)C2=C(O)[C@]3(O)C(=O)C(C(N)=O)=C(O)[C@@H](N(C)C)[C@@H]3[C@@H](O)[C@@H]21.O ... 8
CN(C)c1ccc(O)c2c1C[C@H]1C[C@H]3[C@H](N(C)C)C(O)=C(C(N)=O)C(=O)[C@@]3(O)C(O)=C1C2=O ... 16
O=C(N[C@H](CO)[C@H](O)c1ccc([N+](=O)[O-])cc1)C(Cl)Cl ... 16
CO[C@H]1/C=C/O[C@@]2(C)Oc3c(C)c(O)c4c(O)c(c(/C=N/N5CCN(C)CC5)c(O)c4c3C2=O)NC(=O)/C(C)=C\C=C\[C@H](C)[C@H](O)[C@@H](C)[C@@H](O)[C@@H](C)[C@H](OC(C)=O)[C@@H]1C ... 0.5
CN[C@H](CC(C)C)C(=O)N[C@H]1C(=O)N[C@@H](CC(N)=O)C(=O)N[C@H]2C(=O)N[C@H]3C(=O)N[C@H](C(=O)N[C@H](C(=O)O)c4cc(O)cc(O)c4-c4cc3ccc4O)[C@H](O)c3ccc(c(Cl)c3)Oc3cc2cc(c3O[C@@H]2O[C@H](CO)[C@@H](O)[C@H](O)[C@H]2O[C@H]2C[C@](C)(N)[C@H](O)[C@H](C)O2)Oc2ccc(cc2Cl)[C@H]1O ... 2

Data point: `CC1(C)S[C@@H]2[C@H](NC(=O)Cc3ccccc3)C(=O)N2[C@H]1C(=O)O` ; MIC = 2

====

System: Staphylococcus aureus
assay.overview: Antibacterial activity against methicillin-resistant Staphylococcus aureus isolate 5736
Type: functional
readout.kind: MIC (µg/mL)
Answers are plain numbers, in µg/mL.

C[C@H]1c2cccc(O)c2C(=O)C2=C(O)[C@]3(O)C(=O)C(C(N)=O)=C(O)[C@@H](N(C)C)[C@@H]3[C@@H](O)[C@@H]21.O ... 4

Attention now turns to another entry.
Data point: `CN(C)[C@@H]1C(O)=C(C(N)=O)C(=O)[C@@]2(O)C(O)=C3C(=O)c4c(O)cccc4[C@@](C)(O)[C@H]3C[C@@H]12` ; MIC = 8

====

Hi there, I'd appreciate the recorded MIC for every entry that follows.
Test system: Enterococcus faecium
assay.overview: Antibacterial activity against Enterococcus faecium isolate 2547
Assay type: functional
Give bare numbers, in µg/mL.

Look up MIC for the entries below, preserving their order.
1. CC1(C)S[C@@H]2[C@H](NC(=O)Cc3ccccc3)C(=O)N2[C@H]1C(=O)O
2. CN(C)c1ccc(O)c2c1C[C@H]1C[C@H]3[C@H](N(C)C)C(O)=C(C(N)=O)C(=O)[C@@]3(O)C(O)=C1C2=O

1. 128
2. 32

====

System: Staphylococcus aureus
assay.overview: Antibacterial activity against vancomycin-resistant Staphylococcus aureus isolate 595
Type: functional
Hi there, I'd appreciate the recorded MIC for every entry that follows.

Look up MIC for the entries below, preserving their order.
1. CCC[C@@H]1C[C@@H](C(=O)N[C@@H]([C@H]2O[C@H](SC)[C@H](O)[C@@H](O)[C@H]2O)[C@H](C)Cl)N(C)C1 [CLINDAMYCIN]
2. CC[C@H]1OC(=O)[C@H](C)[C@@H](O[C@H]2C[C@@](C)(OC)[C@@H](O)[C@H](C)O2)[C@H](C)[C@@H](O[C@@H]2O[C@H](C)C[C@H](N(C)C)[C@H]2O)[C@](C)(O)C[C@@H](C)C(=O)[C@H](C)[C@@H](O)[C@]1(C)O [ERYTHROMYCIN]
3. CN(C)[C@@H]1C(O)=C(C(N)=O)C(=O)[C@@]2(O)C(O)=C3C(=O)c4c(O)cccc4[C@@](C)(O)[C@H]3C[C@@H]12 [TETRACYCLINE]
4. Cc1onc(-c2ccccc2)c1C(=O)N[C@@H]1C(=O)N2[C@@H]1SC(C)(C)[C@@H]2C(=O)O [OXACILLIN]

1: > 8 µg/mL; 2: > 8 µg/mL; 3: > 16 µg/mL; 4: > 16 µg/mL

====

Test system: Enterococcus faecium
assay.overview: Antibacterial activity against Enterococcus faecium isolate 5749
Type: functional
Hi there, I'd appreciate the recorded MIC for every entry that follows.

CO[C@H]1/C=C/O[C@@]2(C)Oc3c(C)c(O)c4c(O)c(c(/C=N/N5CCN(C)CC5)c(O)c4c3C2=O)NC(=O)/C(C)=C\C=C\[C@H](C)[C@H](O)[C@@H](C)[C@@H](O)[C@@H](C)[C@H](OC(C)=O)[C@@H]1C ... > 4 µg/mL
CC[C@H]1OC(=O)[C@H](C)[C@@H](O[C@H]2C[C@@](C)(OC)[C@@H](O)[C@H](C)O2)[C@H](C)[C@@H](O[C@@H]2O[C@H](C)C[C@H](N(C)C)[C@H]2O)[C@](C)(O)C[C@@H](C)C(=O)[C@H](C)[C@@H](O)[C@]1(C)O ... > 8 µg/mL

Attention now turns to another entry.
Data point: `CN(C)[C@@H]1C(O)=C(C(N)=O)C(=O)[C@@]2(O)C(O)=C3C(=O)c4c(O)cccc4[C@@](C)(O)[C@H]3C[C@@H]12` ; MIC = > 16 µg/mL

====

Tested on: Staphylococcus aureus
assay.overview: Antibacterial activity against methicillin-resistant Staphylococcus aureus isolate 5733
Format: functional
Hi there, I'd appreciate the recorded MIC for every entry that follows.

These recorded examples may help you get a feel for the data.
CC[C@H]1OC(=O)[C@H](C)[C@@H](O[C@H]2C[C@@](C)(OC)[C@@H](O)[C@H](C)O2)[C@H](C)[C@@H](O[C@@H]2O[C@H](C)C[C@H](N(C)C)[C@H]2O)[C@](C)(O)C[C@@H](C)C(=O)[C@H](C)[C@@H](O)[C@]1(C)O ... > 8 µg/mL
CCC[C@@H]1C[C@@H](C(=O)N[C@@H]([C@H]2O[C@H](SC)[C@H](O)[C@@H](O)[C@H]2O)[C@H](C)Cl)N(C)C1 ... > 8 µg/mL

Attention now turns to another entry.
Data point: `Cc1onc(-c2ccccc2)c1C(=O)N[C@@H]1C(=O)N2[C@@H]1SC(C)(C)[C@@H]2C(=O)O` ; MIC = > 16 µg/mL
